Experiment: Pharmacokinetics in mice, intravenous administration
Assay type: in vivo, male C57/BL6 mice
Conditions: i.v. 10 mg/kg, 0 h to last, parent
Catalogue of AUC readings, one per entry.

Take a look at these entries with their results.
> print(dat)
                                   compound     experimental.value
1  C[C@H]1[C@H](N2CCS(=O)(=O)CC2)O[C@@H]2O[C@@]3(C)CC[C@H]4[C@H](C)CC[C@@H]1[C@@]24OO3  577.5 ± 30 min/µmol/L
2  C[C@H]1[C@H](N2CCSCC2)O[C@@H]2O[C@@]3(C)CC[C@H]4[C@H](C)CC[C@@H]1[C@@]24OO3 [Artemiside 5, artemiside]  184.9 ± 43 min/µmol/L

q: Quick one: AUC of C[C@H]1[C@H](NS(N)(=O)=O)O[C@@H]2O[C@@]3(C)CC[C@H]4[C@H](C)CC[C@@H]1[C@@]24OO3 [Sulfamide 7] ?
a: 864.1 ± 213 min/µmol/L

q: Entry to check: CO[C@H]1O[C@@H]2O[C@@]3(C)CC[C@H]4[C@H](C)CC[C@@H]([C@H]1C)[C@@]24OO3
a: 304.4 ± 80 min/µmol/L

q: Entry to check: C[C@H]1[C@H](N2CCN(C(=O)Nc3ccc(F)cc3)CC2)O[C@@H]2O[C@@]3(C)CC[C@H]4[C@H](C)CC[C@@H]1[C@@]24OO3
a: 315.9 ± 33 min/µmol/L

q: Entry to check: C[C@@H]1CC[C@H]2[C@@H](C)C(=O)N[C@@H]3O[C@@]4(C)CC[C@@H]1[C@]32OO4
a: 462.7 ± 117 min/µmol/L

====

Experiment: Metabolic stability in rat liver microsomes
Format: in vitro ADME
Set-up: dose or concentration left out as unconfirmed
Conditions: read-out: Microsomal half-life t1/2 Rat
MEASUREMENT_TYPE: half-life

Take a look at these entries with their results.
> print(dat)
                                   compound  measurement.type  experimental.value
1  C[C@H]1[C@H](N2CCSCC2)O[C@@H]2O[C@@]3(C)CC[C@H]4[C@H](C)CC[C@@H]1[C@@]24OO3 [Artemiside 5, artemiside]         half-life            < 10 min
2  CO[C@H]1O[C@@H]2O[C@@]3(C)CC[C@H]4[C@H](C)CC[C@@H]([C@H]1C)[C@@]24OO3 [Artemether 3, artemether]         half-life            < 10 min
3  C[C@@H]1CC[C@H]2[C@@H](C)C(=O)N[C@@H]3O[C@@]4(C)CC[C@@H]1[C@]32OO4 [11-Aza-artemisinin 11, 11-aza-artemisinin]         half-life           > 150 min

q: Quick one: half-life of C[C@H]1[C@H](N2CCS(=O)(=O)CC2)O[C@@H]2O[C@@]3(C)CC[C@H]4[C@H](C)CC[C@@H]1[C@@]24OO3 [Artemisone 6, artemisone] ?
a: < 10 min

====

Assay: Plasma protein binding (ultracentrifugation)
Format: in vitro ADME
Conditions: pooled plasma, human plasma, read-out: Plasma protein binding fu
Catalogue of fraction unbound at 4 h, 10 µM readings, one per entry.

Take a look at these entries with their results.
> print(dat)
                                   molecule  experimental.value
1  CO[C@H]1O[C@@H]2O[C@@]3(C)CC[C@H]4[C@H](C)CC[C@@H]([C@H]1C)[C@@]24OO3                0.14
2  C[C@H]1[C@H](N2CCS(=O)(=O)CC2)O[C@@H]2O[C@@]3(C)CC[C@H]4[C@H](C)CC[C@@H]1[C@@]24OO3                0.14

Now consider a different molecule.
q: Quick one: fraction unbound at 4 h, 10 µM of C[C@H]1[C@H](NS(N)(=O)=O)O[C@@H]2O[C@@]3(C)CC[C@H]4[C@H](C)CC[C@@H]1[C@@]24OO3 [Sulfamide 7] ?
a: 0.17

Cited source: paper PMC8284440
